From: PubChem BioAssay

experiment: compound effects on multiple myeloma cell viability – MM1S, calcein-AM fluorescence, 48 h, basal, profiling panel (AID 1165); settings: higher = more signal;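 also: viability of MM1S multiple myeloma cells under basal unstimulated conditions; test concentration not given here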
endpoint: z-score

>  <structure.as.smiles>
CCOC(=O)C[C@H]1[C@H](OC(=O)c2cc3ccccc3oc2=O)[C@@H](NC(=O)CC(C)C)c2cc(OCCCO)ccc2N1C(=O)c1ccc2ccccc2n1

>  <endpoint>
z-score

>  <observed.measurement>
-0.18

$$$$
>  <structure.as.smiles>
COC(=O)[C@@]1(Cc2ccc(OC)cc2)[C@H]2c3cc(C(=O)N4CCCC4)n(CCc4c[nH]c5ccc(O)cc45)c3C[C@H]2CN1C(=O)c1ccccc1

>  <endpoint>
z-score

>  <observed.measurement>
-0.927

$$$$
>  <structure.as.smiles>
Cc1ccc(N2C(=O)c3ccccc3[C@@H](C(=O)NCCCN(C)C)[C@@H]2c2ccc(CO)cc2)nc1

>  <endpoint>
z-score

>  <observed.measurement>
0.817

$$$$
>  <structure.as.smiles>
O=C(O)[C@@H]1C[C@@H]2C(=O)N3CCC[C@H]3C(=O)N2[C@@H]1c1ccc(O)cc1

>  <endpoint>
z-score

>  <observed.measurement>
-3.42

$$$$

----------
assay: blockers of DNA damage checkpoint Chk1 activation – imaging, HeLa, hydroxyurea, phospho-Chk1 antibody, percent positive cells, primary screen (AID 1186); settings: hydroxyurea-induced phospho-Chk1 immunofluorescence imaging, higher = more signal
The source made the active and inactive calls. The rule behind the calls is not given here.

>  <molecule>
COc1cc(C(O)C2C=CC3C(=O)N(C)C(=O)C3N2Nc2ccccc2)cc(OC)c1OC (centres undefined)

>  <z-score>
-0.129 (inactive)

$$$$
>  <molecule>
COC(=O)[C@@]1(Cc2ccc(OC)cc2)[C@H]2c3cc(C(=O)N4CCCC4)n(CCc4c[nH]c5ccc(OC)cc45)c3C[C@H]2CN1C(=O)c1ccccc1

>  <z-score>
0.513 (inactive)

$$$$
>  <molecule>
CC(c1ccccc1)C(O)C1C=CC2C(=O)N(C)C(=O)C2N1Nc1ccccc1 (centres undefined)

>  <z-score>
0.378 (inactive)

$$$$
>  <molecule>
CCCN1C(=O)[C@@]2(Cc3ccccc31)N=C(c1ccc(OCCCO)cc1)O[C@H]2c1ccccc1

>  <z-score>
-0.0494 (inactive)

$$$$

----------
tested on: wheat germ agglutinin (Triticum aestivum), Alexa647-labelled; test: Alexa647-WGA lectin binding to printed small molecules – biochemical, small-molecule microarray, 635/667 nm fluorescence, artefact control for SMM control-protein annotation, profiling panel (AID 1140); details: WGA-A647 binding, 635 nm fluorescence, higher = more signal;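 also: score merges 667 nm feature emission with signal to noise over triplicate slides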
endpoint: composite z-score

>  <compound>
COc1cc(OC)c(C(O)C2C=CC3C(=O)N(Cc4ccccc4)C(=O)C3N2n2cnnc2)cc1Br (configuration not stated)

>  <observed.measurement>
1.02

$$$$
>  <compound>
COC(=O)[C@@]1(Cc2ccc(F)cc2)[C@H]2c3cc(C(=O)N4CCCC4)n(CCc4c[nH]c5ccccc45)c3C[C@H]2CN1C(=O)c1ccccc1

>  <observed.measurement>
0.816

$$$$
>  <compound>
CN(C)CCCCCCNC(=O)[C@@H]1C[C@@H]2C(=O)N3CCC[C@H]3C(=O)N2[C@@H]1c1cccc(OCCO)c1

>  <observed.measurement>
1.1

$$$$
>  <compound>
COc1ccc(C#Cc2ccc3c(c2)[C@]2(C(=O)N3)[C@H](c3ccc(OCCO)cc3)N3[C@H](c4ccccc4)[C@H](c4ccccc4)OC(=O)[C@H]3[C@@H]2C(=O)NC[C@H](O)c2ccccc2)cc1

>  <observed.measurement>
0.887

$$$$
>  <compound>
C[C@@H]1NC(=O)[C@@H](Cc2ccccc2)NC(=O)[C@@]23C(=O)N[C@@H](Cc4ccccc4)C2[C@H](C)[C@@]2(C)O[C@H]2C3/C=C/C/C=C\CNC1=O (some centres not stated)

>  <observed.measurement>
-0.889

$$$$
>  <compound>
Cc1ccc(N2C(=O)c3ccccc3[C@@H](C(=O)NCCCN(C)C)[C@@H]2c2ccc(CO)cc2)nc1

>  <observed.measurement>
-0.0618

$$$$
>  <compound>
CO[C@H]1O[C@H](CO)[C@@H](OC(=O)CCc2ccccc2)[C@@H]2OC(=O)[C@@H](Cc3ccccc3)C/C=C/C[C@H](Cc3ccccc3)C(=O)O[C@@H]12

>  <observed.measurement>
0.0856

$$$$
>  <compound>
C=CCC(OC(C)=O)[C@@H]1[C@@H](N(Cc2cccc3ccccc23)C(=O)Cc2ccc(F)cc2)c2cc(OCCCO)ccc2N1C(=O)c1ccc2ccccc2c1 (some centres not stated)

>  <observed.measurement>
0.0096

$$$$
>  <compound>
C=CCC(OC(C)=O)[C@@H]1[C@@H](N(Cc2ccc(-c3cccc(C(F)(F)F)c3)o2)C(=O)Cc2ccc(OC)cc2)c2cc(OCCCO)ccc2N1C(=O)c1ccc(-c2ccccc2)cc1 (some centres not stated)

>  <observed.measurement>
-0.402

$$$$
>  <compound>
NC(=O)NCC#Cc1ccc2c(c1)[C@]1(C(=O)N2)[C@H](c2ccccc2OCCO)N2[C@H](c3ccccc3)[C@H](c3ccccc3)OC(=O)[C@H]2[C@@H]1C(=O)O

>  <observed.measurement>
0.225

$$$$
>  <compound>
COCCCNC(=O)[C@@]1(Sc2ccc(C)cc2)CC(=O)N(C2Cc3ccccc3C2)[C@@H]1c1ccc(CO)cc1

>  <observed.measurement>
-1.47

$$$$
>  <compound>
COCCOC(=O)N1C(=O)[C@@]2(c3cc(C#CC4(O)CCCCCC4)ccc31)[C@H](C(=O)Nc1nc3ccccc3s1)[C@H]1C(=O)O[C@H](c3ccccc3)[C@H](c3ccccc3)N1[C@@H]2c1ccc(O)cc1

>  <observed.measurement>
0.275

$$$$
>  <compound>
NC(=O)NCC#Cc1ccc2c(c1)[C@]1(C(=O)N2)[C@H](C(=O)N2CCN(c3ncccn3)CC2)[C@H]2C(=O)O[C@H](c3ccccc3)[C@H](c3ccccc3)N2[C@@H]1c1ccc(O)cc1

>  <observed.measurement>
0.542

$$$$
>  <compound>
OCCCC1=CC(c2ccc(CN3CCCC3)cc2)N(Cc2cc3c(cc2Br)OCO3)CC1 (configuration not stated)

>  <observed.measurement>
0.266

$$$$
>  <compound>
C=CC[C@@H](OC(=O)Nc1ccc(OC)cc1)c1ccc(O)c(F)c1

>  <observed.measurement>
-0.733

$$$$
>  <compound>
CCOc1cc(C(O)C2C=CC3C(=O)NC(=O)C3N2Nc2ccc(Cl)cc2Cl)ccc1O (configuration not stated)

>  <observed.measurement>
0.235

$$$$
>  <compound>
CCOC(=O)C1=C[C@@H](C(C)(C)C)N(S(=O)(=O)c2ccc(C)cc2)[C@H]1c1cccc2ccccc12

>  <observed.measurement>
0.437

$$$$
>  <compound>
COCC(=C=CC[C@H](O)c1ccc(OCCO)cc1)CCO

>  <observed.measurement>
-0.335

$$$$
>  <compound>
CC(=O)NCCCC[C@@H]1NC(=O)[C@@H]2C[C@H](C(=O)NCCCCCN)[C@H](c3cccc(OCCO)c3)N2C1=O

>  <observed.measurement>
0.79

$$$$
>  <compound>
[N-]=[N+]=NCc1ccccc1C[C@@]1(C(N)=O)N=C(c2ccc(OCCCO)cc2)O[C@@H]1c1ccccc1

>  <observed.measurement>
1.3

$$$$
>  <compound>
COc1ccc([Si](C)(C)[C@@H]2[C@@H](CC(=O)N(CCO)Cc3ccccc3)O[C@]3(C(=O)N(Cc4cccc(N5CCCCC5=O)c4)c4ccccc43)[C@H]2C)cc1

>  <observed.measurement>
0.349

$$$$
>  <compound>
CCOC(=O)C[C@H]1[C@H](OC(=O)c2cc3ccccc3oc2=O)[C@@H](NC(=O)c2ccc3ccccc3n2)c2cc(OCCCO)ccc2N1C(=O)Cc1ccc(OC)cc1

>  <observed.measurement>
0.275

$$$$
>  <compound>
CCCC=C(CCC)[C@@H](NC(=O)C(C)(C)C)c1ccc(C(=O)OC)cc1

>  <observed.measurement>
0.995

$$$$
>  <compound>
C=CCOC(=O)[C@@H]1[C@H]2C(=O)O[C@H](c3ccccc3)[C@H](c3ccccc3)N2[C@H](c2ccc(OCCOC(=O)[C@@H]3C[C@@H]4C(=O)N[C@@H](CCCC[N+](C)(C)C)C(=O)N4[C@@H]3c3ccc(O)cc3)cc2)[C@@]12C(=O)Nc1ccc(I)cc12

>  <observed.measurement>
0.216

$$$$
>  <compound>
CO[C@H]1O[C@H](CO)[C@@H](OC(=O)Nc2ccc(Br)cc2)[C@@H]2OC(=O)[C@@H](Cc3ccccc3)C/C=C/C[C@H](Cc3ccccc3)C(=O)O[C@@H]12

>  <observed.measurement>
0.424

$$$$
>  <compound>
COC(=O)[C@@H]1N=C(c2ccc(OCCCO)cc2)O[C@@H]1C

>  <observed.measurement>
-0.257

$$$$
>  <compound>
C[N+](C)(C)CCCCCCNC(=O)[C@@H]1C[C@@H]2C(=O)N3CCC[C@H]3C(=O)N2[C@@H]1c1ccc(O)cc1

>  <observed.measurement>
0.6

$$$$
